test system: human lung adenocarcinoma A549 cells; assay: WST-1 cell viability assay, growth inhibition of A549 cells under normoxia and hypoxia; conditions: ratio IC50 normoxia / IC50 hypoxia, A549
OUTCOME_MEASURE: Differential cytotoxicity O/H (hypoxic/aerobic cytotoxicity coefficient)

Just so you know, measured Differential cytotoxicity O/H (hypoxic/aerobic cytotoxicity coefficient) for O=C1C=CC(=O)c2[nH]c(-c3ccc4ccccc4c3)nc21 came out at 2.06

Just so you know, measured Differential cytotoxicity O/H (hypoxic/aerobic cytotoxicity coefficient) for O=C1C=CC(=O)c2[nH]c(-c3ccc(Cl)cc3)nc21 came out at 0.83

Just so you know, measured Differential cytotoxicity O/H (hypoxic/aerobic cytotoxicity coefficient) for O=C1C=CC(=O)c2c1[nH]c(-c1ccccc1[N+](=O)[O-])[n+]2[O-] came out at 4.31

Just so you know, measured Differential cytotoxicity O/H (hypoxic/aerobic cytotoxicity coefficient) for O=C1C=CC(=O)c2[nH]c(-c3ccccc3[N+](=O)[O-])nc21 came out at 2.13

Just so you know, measured Differential cytotoxicity O/H (hypoxic/aerobic cytotoxicity coefficient) for O=C1C=CC(=O)c2c1[nH]c(-c1ccc3c(c1)OCO3)[n+]2[O-] came out at 1.80

Just so you know, measured Differential cytotoxicity O/H (hypoxic/aerobic cytotoxicity coefficient) for O=C1C=CC(=O)c2[nH]c(-c3ccc4c(c3)OCO4)nc21 came out at 1.58

Just so you know, measured Differential cytotoxicity O/H (hypoxic/aerobic cytotoxicity coefficient) for O=C1C=CC(=O)c2c1[nH]c(-c1ccc3ccccc3c1)[n+]2[O-] came out at 2.62
